Where do the numbers come from? From the NIST ThermoML archive (doi:10.1016/j.jct.2008.06.017).

Settings: 293.15 K; Liquid; Vibrating tube method
± gives the expanded uncertainty stated by the source.
assay_readout: mass density
A bare number is not enough; add the unit after it.

Below are worked cases with known answers.
1. C=CCOC(=O)C(=C)C [2-propenyl 2-methylpropenoate]
932.965 ± 0.14 kg/m3
2. C=COC(C)=O [vinyl acetate]
931.95 ± 0.068 kg/m3
3. C=C(C)C(=O)OCCCC [butyl 2-methyl-2-propenoate]
895.231 ± 0.11 kg/m3
4. COC(=O)OC [dimethyl carbonate]
1069.79 ± 0.068 kg/m3

Consider now this further compound.
Lab book: mass density of C=Cc1ccccc1 noted as 906.26 ± 0.075 kg/m3

* * *

Details: 303.15 K; Liquid; Vibrating tube method
assay_readout: mass density (kg/m3)
Please respond with the number in kg/m3 and leave the unit unwritten.

In the examples that follow, each entry is paired with its recorded mass density.
1. COC(=O)OC [dimethyl carbonate]
1056.75
2. C=C(C)C(=O)OCCCC [butyl 2-methyl-2-propenoate]
885.991
3. C=CCOC(=O)C(=C)C [2-propenyl 2-methylpropenoate]
922.525
4. C=Cc1ccccc1 [styrene]
897.392

Here's the next entry for you.
Sample C=COC(C)=O [vinyl acetate] ; mass density observed: 919.089

* * *

Attribute: mass density
Settings: 313.15 K; Liquid; Vibrating tube method
± gives the expanded uncertainty stated by the source.

Worked cases, answers included:
1. C=CCOC(=O)C(=C)C [2-propenyl 2-methylpropenoate]
912.072 ± 0.15 kg/m3
2. C=COC(C)=O [vinyl acetate]
906.116 ± 0.076 kg/m3
3. COC(=O)OC [dimethyl carbonate]
1043.37 ± 0.06 kg/m3

The recorded mass density for entry C=C(C)C(=O)OCCCC [butyl 2-methyl-2-propenoate] equals 876.19 ± 0.12 kg/m3

Notebook: C=Cc1ccccc1 [styrene] , mass density read as 888.472 ± 0.081 kg/m3
